Kindly state Test 2 Measured preventive value for each of the entries shown.
- System: Pseudoperonospora cubensis
- assay.remarks: Test 2: control effect against cucumber downy mildew
- Assay type: in vivo
- condition: component (b) alone, 0.4 ppm

Data request, read-out Test 2 Measured preventive value, for COc1ccc(C(=CC(=O)N2CCOCC2)c2ccc(Cl)cc2)cc1OC 0

GET /values?readout=Test 2 Measured preventive value&item= Cc1ccc(-c2c(Cl)nc(C#N)n2S(=O)(=O)N(C)C)cc1 100

Query: Test 2 Measured preventive value; subject: C#CCOc1ccc(CCNC(=O)C(OCC#C)c2ccc(Cl)cc2)cc1OC (stereo not drawn) 89.5
